Values compiled from the supplement of paper PMC7695840.

Tested on: Staphylococcus aureus MW2 (mecA+)
Test: IC50 (growth, competition assay)
Conditions: fluorescent label: DsRed; cefoxitin: subinhibitory
Counter-ions that a name gives are not always drawn.
Property: IC50; scope: individual compounds

Below are worked cases with known answers.
compound	IC50
CC(C)CCC[C@@H](C)[C@H]1CC[C@H]2[C@@H]3CC[C@H]4CC(=O)CC[C@]4(C)[C@H]3CC[C@]12C	> 150 µM
O=C(O)Cc1cc(I)c(Oc2cc(I)c(O)c(I)c2)c(I)c1	< 9.85 µM

Prompt: Look up IC50: CCn1cc(C(=O)O)c(=O)c2cc(F)c(N3CCN(C)CC3)cc21 [Pefloxacin Mesylate Dihydrate]
Completion: < 9.85 µM

Prompt: Look up IC50: CC(=O)Oc1cc2c(c(C)c1OC(C)=O)CC=C1[C@@]2(C)CC[C@@]2(C)C3C[C@](C)(C(=O)O)CC[C@]3(C)CC[C@]12C (stereo not given in full) [DIHYDROCELASTRYL DIACETATE]
Completion: < 9.85 µM

Prompt: Look up IC50: CO/N=C(\C(=O)N[C@@H]1C(=O)N2C(C(=O)O)=C(CSc3nc(=O)c(O)nn3C)CS[C@H]12)c1csc(N)n1 [ROCEPHIN]
Completion: > 150 µM

* * *

Tested on: Staphylococcus aureus MW2 (mecA+)
Assay: IC50 (growth, competition assay)
Conditions: fluorescent label: DsRed; cefoxitin: subinhibitory
pIC50: −log10 of the molar value.
endpoint.label: pIC50

Below are worked cases with known answers.
compound	target.or.test.system	pIC50
CC(=O)OC[C@H]1O[C@@H]([S-])[C@H](OC(C)=O)[C@@H](OC(C)=O)[C@@H]1OC(C)=O.CCP(CC)CC.[Au+]	Staphylococcus aureus MW2 (mecA+)	> 5.01
CCN1CCN(c2cc3c(cc2F)c(=O)c(C(=O)O)cn3C2CC2)CC1 [Enrofloxacin]	Staphylococcus aureus MW2 (mecA+)	> 5.01

Prompt: Missing value: pIC50, Staphylococcus aureus MW2 (mecA+), entry Cc1onc(-c2ccccc2Cl)c1C(=O)N[C@@H]1C(=O)N2[C@@H]1SC(C)(C)[C@@H]2C(=O)O [TEGOPEN] . Fill in?
Completion: > 5.01
